// reported pKd for each item listed
# System under test: PARP4 BRCT-WGR-CAT WT (human)
# Sequence: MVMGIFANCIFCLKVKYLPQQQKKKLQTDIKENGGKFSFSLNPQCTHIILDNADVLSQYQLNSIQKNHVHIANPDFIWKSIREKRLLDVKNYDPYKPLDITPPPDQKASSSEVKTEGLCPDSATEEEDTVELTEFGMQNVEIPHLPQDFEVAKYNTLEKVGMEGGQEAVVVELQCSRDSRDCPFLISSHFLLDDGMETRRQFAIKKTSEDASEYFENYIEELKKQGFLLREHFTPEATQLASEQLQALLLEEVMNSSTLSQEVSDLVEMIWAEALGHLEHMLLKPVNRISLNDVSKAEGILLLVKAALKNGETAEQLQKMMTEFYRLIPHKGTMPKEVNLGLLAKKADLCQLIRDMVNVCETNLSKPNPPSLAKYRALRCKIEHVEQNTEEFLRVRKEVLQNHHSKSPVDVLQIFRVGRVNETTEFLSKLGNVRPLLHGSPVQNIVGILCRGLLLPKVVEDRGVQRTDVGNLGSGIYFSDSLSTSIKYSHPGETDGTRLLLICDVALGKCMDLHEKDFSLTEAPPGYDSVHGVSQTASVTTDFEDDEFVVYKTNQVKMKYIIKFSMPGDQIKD
# Test method notes: EMSA
# Cond: FP: 50 mM Tris pH 7.5, 50 mM NaCl, 1 mM MgCl2, 0.05% NP40, 2 mM DTT, 5% glycerol, 25 ug/ml BSA, room temp 30 min; EMSA: 50 mM Tris pH 7.5, 50 mM NaCl, 4% …
Convention used: pKd is expressed as -log10 of the molar concentration.

{"Polymer sequence": "CCGCGGGC / GCUCGCGG [Probe 4]", "pKd": 5.15}

Moving on to the next sequence.
Q: Endpoint output: pKd of CCGCGGGC / GCUCAGCGG [Probe 3] . Value?
A: 4.96
